# Experimental Target: UniProtKB Q06187
# Procedure Text: Inhibition of BTK (unknown origin) in the presence of ATP
The compounds listed here are annotated with their pIC50.
Keep it numeric: pIC50 is minus log10 of the concentration in mol/L.

These solved cases illustrate the format of a correct answer.
[
  {
    "Item Smiles": "CN1CCN(c2ccc(Nc3nc(Nc4cccc(F)c4)c4ncn(CC5CC5)c4n3)cc2F)CC1",
    "pIC50": 5.74
  },
  {
    "Item Smiles": "CN1CCN(c2ccc(Nc3nc(Nc4ccc(F)cc4)c4ncn(CC5CC5)c4n3)cc2)CC1",
    "pIC50": 5.89
  },
  {
    "Item Smiles": "CN1CCN(c2ccc(Nc3nc(Nc4cccc(F)c4)c4ncn(CC5CC5)c4n3)cc2)CC1",
    "pIC50": 6.18
  }
]

Consider the record given below.
Lab note: need pIC50 with UniProtKB Q06187 for entry CN1CCN(c2ccc(Nc3nc(Nc4ccccc4)c4ncn(CC5CC5)c4n3)cc2)CC1 , please look it up.
6.05

----------
# Experimental Target: UniProtKB Q06187
# Procedure Text: Competitive inhibition of recombinant human BTK incubated for 10 mins in the presence of ATP by mobility shift assay
Quantity Kind: IC50 (nM)
// note: answer is a bare numeric in nM

Lab note: need IC50 with UniProtKB Q06187 for entry C=C(Cl)C(=O)N1CCC(n2nc(-c3ccc(Oc4ccccc4)cc3)c3c(N)ncnc32)CC1 , please look it up.
2.5

----------
# Tested on: OCI-Ly10
# Procedure Text: Antiproliferative activity against human OCILY10 cells assessed as inhibition of cell growth
Quantity Kind: IC50 (nM)
// note: answer is a bare numeric in nM

# lookup: IC50 of C=C(Cl)C(=O)N1CCC(n2nc(-c3ccc(Oc4ccccc4)cc3)c3c(N)ncnc32)CC1
200

----------
# Experimental Target: Protein cereblon/Tyrosine-protein kinase BTK (Homo sapiens, UniProt Q06187+Q96SW2, C481S)
# Sequence (Q06187 2-659 C481S limits assumed, stated change not applied): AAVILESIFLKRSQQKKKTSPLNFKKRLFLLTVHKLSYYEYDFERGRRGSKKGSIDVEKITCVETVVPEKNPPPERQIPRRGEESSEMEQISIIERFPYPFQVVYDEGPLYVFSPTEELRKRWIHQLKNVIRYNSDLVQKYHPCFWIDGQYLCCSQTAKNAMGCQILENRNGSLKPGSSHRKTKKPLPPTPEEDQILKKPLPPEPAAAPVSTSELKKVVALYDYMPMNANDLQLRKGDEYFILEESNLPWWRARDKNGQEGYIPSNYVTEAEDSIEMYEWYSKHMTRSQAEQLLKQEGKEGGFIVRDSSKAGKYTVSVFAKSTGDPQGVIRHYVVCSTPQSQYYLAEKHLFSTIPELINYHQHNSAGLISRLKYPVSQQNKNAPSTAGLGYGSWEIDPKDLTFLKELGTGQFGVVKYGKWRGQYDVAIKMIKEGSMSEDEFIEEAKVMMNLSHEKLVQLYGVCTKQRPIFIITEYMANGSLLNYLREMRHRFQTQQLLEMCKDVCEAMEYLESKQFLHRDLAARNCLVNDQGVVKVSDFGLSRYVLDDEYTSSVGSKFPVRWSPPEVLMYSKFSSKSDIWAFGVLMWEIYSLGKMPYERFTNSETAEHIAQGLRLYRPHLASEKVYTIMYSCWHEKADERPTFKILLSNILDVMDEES
# Sequence (Q96SW2 whole entry, stated change not applied): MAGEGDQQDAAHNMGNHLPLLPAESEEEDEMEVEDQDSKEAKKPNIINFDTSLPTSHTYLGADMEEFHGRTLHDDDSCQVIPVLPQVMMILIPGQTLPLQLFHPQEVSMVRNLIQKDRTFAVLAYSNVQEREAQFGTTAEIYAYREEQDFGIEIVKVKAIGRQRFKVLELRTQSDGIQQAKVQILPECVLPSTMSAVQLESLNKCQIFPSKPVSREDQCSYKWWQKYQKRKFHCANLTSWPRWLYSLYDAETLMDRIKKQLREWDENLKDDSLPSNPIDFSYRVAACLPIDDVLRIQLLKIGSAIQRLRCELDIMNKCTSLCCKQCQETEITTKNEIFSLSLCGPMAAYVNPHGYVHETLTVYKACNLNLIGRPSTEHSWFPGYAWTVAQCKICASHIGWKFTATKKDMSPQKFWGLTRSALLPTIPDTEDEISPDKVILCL
# Procedure Text: PROTAC activity at CRBN/BTK C481S mutant in human HBL1 cells assessed as decrease in BTK C481S level incubated for 36 hrs by Western blot analysis
# Format: cell-based
Quantity Kind: pEC50
Keep it numeric: pEC50 is minus log10 of the concentration in mol/L.

# lookup: pEC50 of Nc1ncnc2c1c(-c1ccc(Oc3ccccc3)cc1)nn2C1CCCN(C(=O)c2cn(CCOCCOCCOCCCc3cccc4c3CN(C3CCC(=O)NC3=O)C4=O)nn2)C1 (stereo unspecified)
7.54

----------
# Experimental Target: Protein cereblon/Tyrosine-protein kinase BTK (Homo sapiens, UniProt Q06187+Q96SW2)
# Sequence (Q06187 whole entry): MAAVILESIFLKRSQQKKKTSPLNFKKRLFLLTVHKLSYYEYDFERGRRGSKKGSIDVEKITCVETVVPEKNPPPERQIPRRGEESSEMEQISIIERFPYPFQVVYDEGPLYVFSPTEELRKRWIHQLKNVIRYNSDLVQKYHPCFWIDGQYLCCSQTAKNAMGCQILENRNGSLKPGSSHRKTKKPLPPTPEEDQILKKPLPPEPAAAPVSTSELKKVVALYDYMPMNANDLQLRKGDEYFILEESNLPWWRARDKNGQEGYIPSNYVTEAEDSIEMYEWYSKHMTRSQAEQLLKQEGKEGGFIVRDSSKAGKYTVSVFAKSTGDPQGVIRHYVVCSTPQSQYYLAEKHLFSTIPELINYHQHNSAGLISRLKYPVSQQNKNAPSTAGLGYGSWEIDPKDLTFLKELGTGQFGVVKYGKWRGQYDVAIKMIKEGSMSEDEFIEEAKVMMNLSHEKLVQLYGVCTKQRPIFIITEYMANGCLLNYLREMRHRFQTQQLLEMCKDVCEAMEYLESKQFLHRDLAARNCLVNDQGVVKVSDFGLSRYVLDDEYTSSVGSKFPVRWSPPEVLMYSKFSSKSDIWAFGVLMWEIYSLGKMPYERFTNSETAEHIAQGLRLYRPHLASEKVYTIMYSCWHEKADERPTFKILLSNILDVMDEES
# Sequence (Q96SW2 whole entry): as the sequence (Q96SW2 whole entry, stated change not applied) above
# Procedure Text: PROTAC activity at CRBN/BTK in human NAMALVA cells assessed as decrease in BTK level incubated for 24 hrs by Western blot analysis
# Assay type: cell-based
Quantity Kind: EC50 (nM)
// note: answer is a bare numeric in nM

Lab note: need EC50 with Protein cereblon/Tyrosine-protein kinase BTK (Homo sapiens, UniProt Q06187+Q96SW2) for entry Nc1ncnc2c1c(-c1ccc(Oc3ccccc3)cc1)nn2C1CCN(CCOCCOCC(=O)Nc2ccc3c(c2)C(=O)N(C2CCC(=O)NC2=O)C3=O)CC1 (stereo unspecified) , please look it up.
6.2

----------
# Test system: Maver1
# Procedure Text: Antiproliferative activity against human MAVER-1 cells assessed as reduction in cell viability incubated for 72 hrs by CellTiter Glo luminescence assay
# Condition Parameters: Maver1, 72 h
Quantity Kind: pIC50
Keep it numeric: pIC50 is minus log10 of the concentration in mol/L.

These solved cases illustrate the format of a correct answer.
[
  {
    "Compound": "Nc1cccc(Cn2nc(-c3ccc(Oc4ccccc4)cc3)c3c(N)ncnc32)c1",
    "Reported Measurement": 4.77
  },
  {
    "Compound": "Nc1ncnc2c1c(-c1ccc(Oc3ccccc3)cc1)nn2Cc1ccccc1F",
    "Reported Measurement": 4.46
  },
  {
    "Compound": "Nc1ncnc2c1c(-c1ccc(Oc3ccccc3)cc1)nn2Cc1cccc(NC(=O)CCl)c1",
    "Reported Measurement": 6.40
  },
  {
    "Compound": "C=CC(=O)Nc1cccc(Cn2nc(-c3ccc(Oc4ccccc4)cc3)c3c(N)ncnc32)c1",
    "Reported Measurement": 5.59
  }
]

Consider the record given below.
# lookup: pIC50 of Nc1ncnc2c1c(-c1ccc(Oc3ccccc3)nc1)nn2C1CCCN(C(=O)CCl)C1 (stereo not given)
6.40
